tested on: SNB-75; experiment: Cytotoxicity against human SNB75 cells assessed as cellular growth at 10 uM by SRB assay; format: functional
measure: Activity (%)
Enter your answer as a number in %; do not include the unit.

Any idea what Activity was measured for O=C(Nc1ccc2oc(=O)ccc2c1)c1ccc(-c2ccc(Cl)c(Cl)c2)o1 ?
92.21

And the next one, O=C(NCc1cccnc1)c1sc2cc([N+](=O)[O-])ccc2c1Cl ?
91.37

Ok, now O=C(Nc1ccc(S(=O)(=O)Nc2nccs2)cc1)c1cccs1
87.94

* * *

tested on: OVCAR-4; experiment: Cytotoxicity against human OVCAR4 cells assessed as cellular growth at 10 uM by SRB assay; format: functional
Could you please report measured Activity for the items listed next?
Write it as a number; the unit % goes unstated.

What value of measured Activity is listed for COc1ccc(NC(=O)c2sc3nc4c(cc3c2N)C(=O)CCC4)cc1 ?
107.69

Do the same for O=C(Nc1ccc2oc(=O)ccc2c1)c1ccc(-c2ccc(Cl)c(Cl)c2)o1 please
91.52

Again, but for Nc1c(C(=O)Nc2cccc(Cl)c2)sc2nc3c(cc12)C(=O)CCC3
60.44

And what about the compound O=C(NCCc1ccccc1)c1[nH]c2ccccc2c1Cl ?
82.6
